measured on: UniProt:P21453
Sequence (P21453 whole entry): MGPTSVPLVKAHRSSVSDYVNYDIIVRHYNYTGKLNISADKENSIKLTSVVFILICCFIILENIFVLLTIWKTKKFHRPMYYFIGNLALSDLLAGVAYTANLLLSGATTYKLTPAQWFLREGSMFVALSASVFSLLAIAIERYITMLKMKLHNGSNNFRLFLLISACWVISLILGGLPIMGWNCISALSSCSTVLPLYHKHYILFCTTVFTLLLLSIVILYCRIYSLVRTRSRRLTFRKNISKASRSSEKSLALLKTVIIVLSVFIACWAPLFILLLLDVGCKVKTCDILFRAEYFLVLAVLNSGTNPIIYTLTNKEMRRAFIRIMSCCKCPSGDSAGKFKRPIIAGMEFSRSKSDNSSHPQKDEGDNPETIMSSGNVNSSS
assay details: Antagonist activity against S1P1R in human U2OS cells expressing beta-arrestin/green fluorescent protein assessed as effect on S1P-induced beta-arrestin GFP relocalization incubated for 30 mins by Hoechst 33342 staining based receptor translocation assay
pEC50: −log10 of the molar value.
measurement name: pEC50

> print(dat)
                                   molecule  measurement.name  data.value
1  C=CCC(NS(=O)(=O)c1ccc(Cl)cc1)c1nnc(C)n1CC (racemic)             pEC50        5.65
2  CCc1[nH]nc(C(C)NS(=O)(=O)c2ccc(Cl)cc2)c1CC (racemic)             pEC50        6.51
3  Cc1nnc(C(Cc2ccccc2)NS(=O)(=O)c2ccc(Cl)cc2)n1C (racemic)             pEC50        5.74
4  C=CCSc1nnc(C(Cc2ccccc2)NS(=O)(=O)c2ccc(Cl)cc2)n1C (racemic)             pEC50        5.99
5  CCc1snc(C(C)NS(=O)(=O)c2ccc(Cl)cc2)c1CC (racemic)             pEC50        6.14

[A] CCn1c(C)nnc1C(C)NS(=O)(=O)c1ccc(Cl)cc1 (racemic)
[B] Cc1cnc(C(Cc2ccccc2)NS(=O)(=O)c2ccc(Cl)cc2)n1C (racemic)
Request: Please indicate which has the smaller reported pEC50: A , or B . Bench note: the answer is the label of the chosen record.
Result: B

----------
assay details: Protein binding in rat plasma assessed as unbound fraction
Format: ADME, cell-free
measurement name: fraction unbound
Answer field: number only, no words.

For record CCc1nnc([C@@H](C)NS(=O)(=O)c2ccc(Cl)cc2)n1CC the listed fraction unbound is 0.5

----------
assay details: Apparent permeability from apical to basolateral side in human Caco2 cells
Assay type: ADME, cell-based
run conditions: Caco-2
measurement name: Papp A→B (×10⁻⁶ cm/s)
Respond numerically; units are ×10⁻⁶ cm/s and should not be typed.

For record CCc1nnc([C@@H](C)NS(=O)(=O)c2ccc(Cl)cc2)n1CC the listed Papp A→B is 11.1

----------
assay details: Intrinsic clearance in human hepatocytes assessed per 10^6 cells
Type: ADME, cell-based, Hepatocyte
run conditions: read-out: CLH
measurement name: hepatocyte CLint

For record CCn1c(C)nnc1C(C)NS(=O)(=O)c1ccc(Cl)cc1 (racemic) the listed hepatocyte CLint is < 2 µL/min/1e6 cells

----------
assay details: Intrinsic clearance in human liver microsomes
Type: ADME
run conditions: liver microsomes, read-out: CLH
Entries and their measured microsomal CLint follow.

Study these solved cases before continuing.
> print(dat)
                                   compound       data.value
1  CCc1onc(C(C)NS(=O)(=O)c2ccc(Cl)cc2)c1CC (racemic)  > 100 µL/min/mg
2  CCc1nnc(C(Cc2ccccc2)NS(=O)(=O)c2ccc(Cl)cc2)o1 (racemic)  > 100 µL/min/mg
3  Cc1ncc(C(Cc2ccccc2)NS(=O)(=O)c2ccc(Cl)cc2)n1C (racemic)  > 100 µL/min/mg
4  Cc1cnc(C(Cc2ccccc2)NS(=O)(=O)c2ccc(Cl)cc2)n1C (racemic)  > 100 µL/min/mg
5  CCc1snc(C(C)NS(=O)(=O)c2ccc(Cl)cc2)c1CC (racemic)  > 100 µL/min/mg
6  CCn1c(C)nnc1C(C)NS(=O)(=O)c1ccc(Cl)cc1 (racemic)    < 5 µL/min/mg

Now for the compound whose microsomal CLint we want.
For record CCc1[nH]nc(C(C)NS(=O)(=O)c2ccc(Cl)cc2)c1CC (racemic) the listed microsomal CLint is > 100 µL/min/mg

Origin of values: ChEMBL document CHEMBL3399941
